Where these numbers come from: PubChem BioAssay AID1508600

assay: Components of the Cytosolic LPS Sensing Pathway: Gene Identification via Genome-wide siRNA Screen; conditions: RAW264.7 macrophages, IL-1a HTRF, actives lie on both sides, screened at 100 nM (by protocol), cells primed 5 h with Pam3CSK4 first;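 note: robust z of the log signal after scaling to non-targeting control siRNA wells of the plate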
Out of some 53,000 sequences screened, about 3,700 (7%) were called active. This is one part of a sample in which actives are shown more often than they occur.

Chain: GGAUGUGUUAUCGGUGCUCTT against Mup21
z-score: -0.303 (inactive)

Chain: GGUUAGCUUCUUAAAACCATT against Adcy10
z-score: -0.605 (inactive)

Chain: GCUCCUGUGAUUGAUGCAGTT against Dync1h1
z-score: 0.528 (inactive)

Chain: GGCUAUGCAAGUGGAGAGCTT against Nfat5
z-score: -0.311 (inactive)

Chain: GGUCAAAGAGUUCUGUGAATT against Ppp2r1a
z-score: -0.79 (inactive)

Chain: GCGGUAUCCUAGCUGUGAATT against Brsk1
z-score: -0.0667 (inactive)
